# credit: patent US20160250285A1

system: primary cortical neuronal cultures; conditions: FIG. 1i; comparison at 0.5 μM and 1 μM
Peptide text beside a SMILES is read from it.

{"compound": "N=C(N)NCCC[C@H](N)C(=O)O [Peptide R1, H-R-OH]", "neuroprotection, milder insult": "ineffective"}
{"compound": "N=C(N)NCCC[C@H](NC(=O)[C@H](CCCNC(=N)N)NC(=O)[C@H](CCCNC(=N)N)NC(=O)[C@H](CCCNC(=N)N)NC(=O)[C@H](CCCNC(=N)N)NC(=O)[C@@H](N)CCCNC(=N)N)C(=O)O [Peptide R6, H-RRRRRR-OH]", "neuroprotection, milder insult": "ineffective"}
{"compound": "N=C(N)NCCC[C@H](NC(=O)[C@H](CCCNC(=N)N)NC(=O)[C@@H](N)CCCNC(=N)N)C(=O)O [Peptide R3, H-RRR-OH] (H-Arg-Arg-Arg-OH)", "neuroprotection, milder insult": "ineffective"}
